# Test system: Staphylococcus aureus
# method.description: Antibacterial activity against gentamicin-resistant Staphylococcus aureus ATCC 33592 by NCCLS two-fold dilution method
# Assay type: functional
Please respond with reported MIC for every item in the list.
The reply should contain only the number, in µg/mL.

// lookup MIC for CC(C)(C)n1nnnc1C(c1ccco1)N1CCN(c2cc3c(cc2F)c(=O)c(C(=O)O)cn3Cc2ccc(C(F)(F)F)cc2)CC1 (configuration not stated) 12.5

// lookup MIC for CCn1cc(C(=O)O)c(=O)c2cc(F)c(N3CCN(C(c4cccc5ccccc45)c4nnnn4C4CCCCC4)CC3)cc21 (configuration not stated) 3.12

// lookup MIC for CCn1cc(C(=O)O)c(=O)c2cc(F)c(N3CCN(C(c4ccccc4)c4nnnn4C4CCCCC4)CC3)cc21 (configuration not stated) 1.56

// lookup MIC for CC(C)(C)n1nnnc1C(c1ccccc1)N1CCN(c2cc3c(cc2F)c(=O)c(C(=O)O)cn3Cc2ccc(C(F)(F)F)cc2)CC1 (configuration not stated) 12.5

// lookup MIC for CCn1cc(C(=O)O)c(=O)c2cc(F)c(N3CCN(C(c4ccc(F)cc4)c4nnnn4C(C)(C)C)CC3)cc21 (configuration not stated) 0.78
